molecular target: T1, histidine-tagged human SIRPA v1 (Novoprotein) (human, UniProt P78324 31-370, limits assumed); experiment: BLI (Octet), antibody on anti-human IgG Fc sensor, His-huSIRPA in solution, single-curve 1:1 fit
T1 construct: bought, soluble; also called huSIRPA; soluble huSIRPA; not shown: histidine tag
T1 sequence (P78324 31-370 limits assumed): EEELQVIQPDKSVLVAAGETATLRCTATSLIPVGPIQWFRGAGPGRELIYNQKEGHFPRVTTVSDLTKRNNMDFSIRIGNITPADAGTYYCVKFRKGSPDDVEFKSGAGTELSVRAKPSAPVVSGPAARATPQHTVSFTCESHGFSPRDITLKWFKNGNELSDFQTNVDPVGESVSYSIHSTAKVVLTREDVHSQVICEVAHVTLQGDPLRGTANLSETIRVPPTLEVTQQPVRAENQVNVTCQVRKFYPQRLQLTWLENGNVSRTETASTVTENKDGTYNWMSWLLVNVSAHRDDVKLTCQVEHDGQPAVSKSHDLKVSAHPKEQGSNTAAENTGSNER
Recorded measurements of kon, one per entry
Entry rule: numbers only, all in M⁻¹ s⁻¹.

3F9-24 (antibody, human IgG1, V domains shown, also called mAb 3F9-24) VH: EVQLLESGGGLVQPGGSLRLSCAASGFTFSSYAMSWVRQAPGKGLEWVATISEYGGSYTYYAESVKGRFTISRDNSKNTLYLQMNSLRAEDTAVYYCARPPYDDYYGGFQYWGQGTLVTVSS VL: DIQLTQSPSSLSASVGDRVTITCRASKSVSSGGYSYMHWYQQKPGKAPKLLIYLASNLESGVPSRFSGSGSGTDFTLTISSVQPEDFATYYCQHNRELPGTFGQGTKLEIK :: 144000
3F9-12 (antibody, human IgG1, V domains shown, also called mAb 3F9-12) VH: EVQLLESGGGLVQPGGSLRLSCAASGFTFSSYAMSWVRQAPGKGLEWVATISEYGGSYTYYAESVKGRFTISRDNSKNTLYLQMNSLRAEDTAVYYCARPPYDDYYGGFRYWGQGTLVTVSS VL: DIQLTQSPSSLSASVGDRVTITCRASKSVSSGGYSYMHWYQQKPGKAPKLLIYLASNLESGVPSRFSGSGSGTDFTLTISSVQPEDFATYYCQHNRELPPTFGQGTKLEIK :: 139000
3F9-20 (antibody, human IgG1, V domains shown, also called mAb 3F9-20) VH: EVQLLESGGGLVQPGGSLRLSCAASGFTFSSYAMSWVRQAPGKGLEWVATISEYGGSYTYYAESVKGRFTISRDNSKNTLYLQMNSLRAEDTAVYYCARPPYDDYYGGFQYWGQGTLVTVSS VL: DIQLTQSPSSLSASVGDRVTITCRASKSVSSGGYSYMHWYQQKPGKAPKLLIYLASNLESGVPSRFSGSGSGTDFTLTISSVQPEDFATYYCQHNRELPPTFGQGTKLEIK :: 150000
3F9-25 (antibody, human IgG1, V domains shown, also called mAb 3F9-25) VH: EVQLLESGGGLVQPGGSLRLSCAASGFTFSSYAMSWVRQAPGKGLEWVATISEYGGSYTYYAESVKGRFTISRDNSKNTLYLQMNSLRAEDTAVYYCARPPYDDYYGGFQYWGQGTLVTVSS VL: DIQLTQSPSSLSASVGDRVTITCRASKSVSSGGYSYMHWYQQKPGKAPKLLIYLASNLESGVPSRFSGSGSGTDFTLTISSVQPEDFATYYCQHNRELPWTFGQGTKLEIK :: 153000

Problem: Look up kon of 3F9-3 (antibody, human IgG1, V domains shown, also called mAb 3F9-3) VH: EVQLLESGGGLVQPGGSLRLSCAASGFTFSSYAMSWVRQAPGKGLEWVATISEYGGSYTYYAESVKGRFTISRDNSKNTLYLQMNSLRAEDTAVYYCARPPYDDYYGGFAYWGQGTLVTVSS VL: DIQLTQSPSSLSASVGDRVTITCRASKSVSSGGYSYMHWYQQKPGKAPKLLIYLASNLESGVPSRFSGSGSGTDFTLTISSVQPEDFATYYCQHNRELPITFGQGTKLEIK and report it.
Result: 93900

Problem: Look up kon of 3F9-9 (antibody, human IgG1, V domains shown, also called mAb 3F9-9) VH: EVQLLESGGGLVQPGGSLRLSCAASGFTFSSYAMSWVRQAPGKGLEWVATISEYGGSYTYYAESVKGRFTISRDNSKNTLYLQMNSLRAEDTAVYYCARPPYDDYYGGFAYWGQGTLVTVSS VL: DIQLTQSPSSLSASVGDRVTITCRASKSVSSGGYSYMHWYQQKPGKAPKLLIYLASNLESGVPSRFSGSGSGTDFTLTISSVQPEDFATYYCQHNRELPWTFGQGTKLEIK and report it.
Result: 89400

Problem: Look up kon of 3F9-11 (antibody, human IgG1, V domains shown, also called mAb 3F9-11) VH: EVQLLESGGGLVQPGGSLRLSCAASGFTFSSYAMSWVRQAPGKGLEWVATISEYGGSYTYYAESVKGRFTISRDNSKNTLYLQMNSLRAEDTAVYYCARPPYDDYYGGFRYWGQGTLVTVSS VL: DIQLTQSPSSLSASVGDRVTITCRASKSVSSGGYSYMHWYQQKPGKAPKLLIYLASNLESGVPSRFSGSGSGTDFTLTISSVQPEDFATYYCQHNRELPITFGQGTKLEIK and report it.
Result: 134000

Where do the numbers come from? From patent US20240301071A1.
